B1: library; a variant is named by its letters at N, in order (parent)
chain: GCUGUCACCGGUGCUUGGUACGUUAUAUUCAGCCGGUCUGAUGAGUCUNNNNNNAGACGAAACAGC

Variants of: B1
assay-summary: normalized RNA/DNA level with ligand (relative to sTRSVctl = 100) (log10 (% of sTRSVctl)); HEK293T overexpressing SLC46A1; ligand concentration (+) RNA-Seq: 6 mM; higher = less ribozyme self-cleavage, higher mRNA level
test-parameters: with (6R,S)-folinic acid; ligand present: yes
Give normalized RNA/DNA level with ligand (log10) for every item shown.
Respond using a number only.

Determine its reported normalized RNA/DNA level with ligand (log10): GCAACU 2.06

Determine its reported normalized RNA/DNA level with ligand (log10): UCAUGA 2.05

Determine its reported normalized RNA/DNA level with ligand (log10): GAUUCU 2.04

Determine its reported normalized RNA/DNA level with ligand (log10): GGUCGC 2

Determine its reported normalized RNA/DNA level with ligand (log10): GUAGCU 2

Determine its reported normalized RNA/DNA level with ligand (log10): CUCUUA 2

Determine its reported normalized RNA/DNA level with ligand (log10): UUCAGC 2.05

Determine its reported normalized RNA/DNA level with ligand (log10): GAAAUC 2.03

Determine its reported normalized RNA/DNA level with ligand (log10): UACCAU 2

Determine its reported normalized RNA/DNA level with ligand (log10): UUCCUG 2.03

Determine its reported normalized RNA/DNA level with ligand (log10): ACCCCG 1.99

Determine its reported normalized RNA/DNA level with ligand (log10): GUACAG 2

Determine its reported normalized RNA/DNA level with ligand (log10): AGAGAC 2.01

Determine its reported normalized RNA/DNA level with ligand (log10): GUGUCC 1.99

Determine its reported normalized RNA/DNA level with ligand (log10): GAGUUA 2.03

Determine its reported normalized RNA/DNA level with ligand (log10): UCAGUU 2

Determine its reported normalized RNA/DNA level with ligand (log10): AGCCCU 2.05

Determine its reported normalized RNA/DNA level with ligand (log10): GUCCCA 2.02

Determine its reported normalized RNA/DNA level with ligand (log10): CGUGGU 1.99

Determine its reported normalized RNA/DNA level with ligand (log10): UGUGGA 2

Determine its reported normalized RNA/DNA level with ligand (log10): GUGCGA 2.02

Determine its reported normalized RNA/DNA level with ligand (log10): UCACAA 1.98

Determine its reported normalized RNA/DNA level with ligand (log10): UGUUUA 2.06

Determine its reported normalized RNA/DNA level with ligand (log10): GAAUGU 2.01

Determine its reported normalized RNA/DNA level with ligand (log10): GAGGAC 2.01

Determine its reported normalized RNA/DNA level with ligand (log10): CUUAUA 2

Determine its reported normalized RNA/DNA level with ligand (log10): CAAGUU 2.03

Determine its reported normalized RNA/DNA level with ligand (log10): GGGACU 2.01

Determine its reported normalized RNA/DNA level with ligand (log10): ACAUAG 2.02

Determine its reported normalized RNA/DNA level with ligand (log10): CUUCCA 2.02

Determine its reported normalized RNA/DNA level with ligand (log10): GGUGGC 2.02

Determine its reported normalized RNA/DNA level with ligand (log10): CAUCGG 2.02

Determine its reported normalized RNA/DNA level with ligand (log10): AGGAGC 2.01

Determine its reported normalized RNA/DNA level with ligand (log10): UGACCA 2.05

Determine its reported normalized RNA/DNA level with ligand (log10): CCGUAC 2.01

Determine its reported normalized RNA/DNA level with ligand (log10): UAUAAU 2

Determine its reported normalized RNA/DNA level with ligand (log10): CAUGGC 2.03

Determine its reported normalized RNA/DNA level with ligand (log10): UCCGAU 2

Determine its reported normalized RNA/DNA level with ligand (log10): CCGCCC 2.04

Determine its reported normalized RNA/DNA level with ligand (log10): AGGGGU 2.02

Determine its reported normalized RNA/DNA level with ligand (log10): GACCAU 2.01

Determine its reported normalized RNA/DNA level with ligand (log10): GCUUCU 2.01

Determine its reported normalized RNA/DNA level with ligand (log10): UAACUA 2.03

Determine its reported normalized RNA/DNA level with ligand (log10): UGGCCU 2.03

Determine its reported normalized RNA/DNA level with ligand (log10): GUCAGA 2.03

Determine its reported normalized RNA/DNA level with ligand (log10): UCUGAA 1.98

Determine its reported normalized RNA/DNA level with ligand (log10): GCACCC 2.01

Determine its reported normalized RNA/DNA level with ligand (log10): CUAGAG 2.02

Determine its reported normalized RNA/DNA level with ligand (log10): AGUGGU 2.02

Determine its reported normalized RNA/DNA level with ligand (log10): UAGGUG 1.96

Determine its reported normalized RNA/DNA level with ligand (log10): CAGGAG 2.03

Determine its reported normalized RNA/DNA level with ligand (log10): CCCGGC 2.02

Determine its reported normalized RNA/DNA level with ligand (log10): ACAAGG 2.02

Determine its reported normalized RNA/DNA level with ligand (log10): CCGGCU 2.05

Determine its reported normalized RNA/DNA level with ligand (log10): AUAGCG 1.96

Determine its reported normalized RNA/DNA level with ligand (log10): CUACAU 2.02

Determine its reported normalized RNA/DNA level with ligand (log10): AGGUUA 1.98

Determine its reported normalized RNA/DNA level with ligand (log10): AUGUUC 2.01

Determine its reported normalized RNA/DNA level with ligand (log10): AACCGG 2.04

Determine its reported normalized RNA/DNA level with ligand (log10): CCCAGU 2.03

Determine its reported normalized RNA/DNA level with ligand (log10): CAAAGC 2

Determine its reported normalized RNA/DNA level with ligand (log10): AACUCA 2

Determine its reported normalized RNA/DNA level with ligand (log10): CUACAG 2.03

Determine its reported normalized RNA/DNA level with ligand (log10): GGCAAU 2.04

Determine its reported normalized RNA/DNA level with ligand (log10): AAGCAA 1.99

Determine its reported normalized RNA/DNA level with ligand (log10): AGAGCU 2.01

Determine its reported normalized RNA/DNA level with ligand (log10): UGUACU 2.02

Determine its reported normalized RNA/DNA level with ligand (log10): UAAUUU 2.01

Determine its reported normalized RNA/DNA level with ligand (log10): CCUGUC 2.01

Determine its reported normalized RNA/DNA level with ligand (log10): ACAAUU 2.04

Determine its reported normalized RNA/DNA level with ligand (log10): UACUCG 1.99

Determine its reported normalized RNA/DNA level with ligand (log10): AGAUUG 2

Determine its reported normalized RNA/DNA level with ligand (log10): UAGGUC 2

Determine its reported normalized RNA/DNA level with ligand (log10): UCAUAC 1.99

Determine its reported normalized RNA/DNA level with ligand (log10): AUCAGG 2.04

Determine its reported normalized RNA/DNA level with ligand (log10): AAAACC 2.02

Determine its reported normalized RNA/DNA level with ligand (log10): AAAUCG 2.03

Determine its reported normalized RNA/DNA level with ligand (log10): UACGAA 1.99

Determine its reported normalized RNA/DNA level with ligand (log10): GUACCG 2.06

Determine its reported normalized RNA/DNA level with ligand (log10): AUCUCA 2.02

Determine its reported normalized RNA/DNA level with ligand (log10): GGAAGG 2.03

Determine its reported normalized RNA/DNA level with ligand (log10): UCCUGA 2.05

Determine its reported normalized RNA/DNA level with ligand (log10): AGUUCA 2.01

Determine its reported normalized RNA/DNA level with ligand (log10): GAGCGG 2.06

Determine its reported normalized RNA/DNA level with ligand (log10): ACGAGA 2.03

Determine its reported normalized RNA/DNA level with ligand (log10): AAGUCG 2.02

Determine its reported normalized RNA/DNA level with ligand (log10): CUUGAC 2.03

Determine its reported normalized RNA/DNA level with ligand (log10): UGAGAA 1.98

Determine its reported normalized RNA/DNA level with ligand (log10): GGUACU 2.04

Determine its reported normalized RNA/DNA level with ligand (log10): AUGGGC 2.03

Determine its reported normalized RNA/DNA level with ligand (log10): UGUCAC 2.01
